Measured IC50 at 48 h of individual entries
- PROTOCOL: WST-1 cytotoxicity assay on Jurkat cells (T-cell line)
- Assay type: cell-based, human
- MEASUREMENT_CONDITIONS: human, Jurkat cells (T-cell line), mean of 4 independent measures, read-out: Cytotoxicity, WST-1 Jurkat IC 50 (µM) Mean
Provide only the numeric value, understood in µM.

**Q:** Tell me the measured IC50 at 48 h of Cc1nc(Nc2ncc(C(=O)Nc3c(C)cccc3Cl)s2)cc(N2CCN(CCO)CC2)n1 [Dasatinib, reference compound] , please.
**A:** 7.3

**Q:** Then what about the compound C[C@]12CC[C@@H]3c4ccc(O)cc4CC[C@H]3[C@@H]1CC[C@@H]2O [Estradiol, reference compound] ?
**A:** 19.5

**Q:** Then what about the compound C=CC(=O)N1CCC[C@@H](n2nc(-c3ccc(Oc4ccccc4)cc3)c3c(N)ncnc32)C1 [Ibrutinib, reference compound] ?
**A:** 14.7

**Q:** Then what about the compound Cc1cc(C#N)cc(C)c1Oc1nc(Nc2ccc(C#N)cc2)nc(N)c1Br [Etravirine, reference compound] ?
**A:** 30.4

**Q:** Then what about the compound Oc1cc(Cl)ccc1Oc1ccc(Cl)cc1Cl [Triclosan, reference compound] ?
**A:** 26.2

Provenance of the data: paper PMC7252619
